Target: recombinant human TRPV1 (HEK-293 cells) (Homo sapiens)
Construct: expressed in transfected cells
Experiment: Desensitization of anandamide/low pH-induced TRPV1-mediated elevation of intracellular [Ca2+]
Type: cell-based
Settings: anandamide 0.25 mM (so in the source), acid pH; read-out: IC50, desensitization of anandamide effect
property.label: IC50 (nM)
The answer is to be given in nM; state only the numeric part.

Write down IC50 measured for item CCCCCCCCCCCCCCCC(=O)NCc1ccc(O)c(OC)c1 [Palvanil]
0.5

---

Biological target: recombinant human TRPV1 (HEK-293 cells) (Homo sapiens, UniProt Q8NER1)
Construct: expressed in transfected cells
Sequence (Q8NER1 whole entry): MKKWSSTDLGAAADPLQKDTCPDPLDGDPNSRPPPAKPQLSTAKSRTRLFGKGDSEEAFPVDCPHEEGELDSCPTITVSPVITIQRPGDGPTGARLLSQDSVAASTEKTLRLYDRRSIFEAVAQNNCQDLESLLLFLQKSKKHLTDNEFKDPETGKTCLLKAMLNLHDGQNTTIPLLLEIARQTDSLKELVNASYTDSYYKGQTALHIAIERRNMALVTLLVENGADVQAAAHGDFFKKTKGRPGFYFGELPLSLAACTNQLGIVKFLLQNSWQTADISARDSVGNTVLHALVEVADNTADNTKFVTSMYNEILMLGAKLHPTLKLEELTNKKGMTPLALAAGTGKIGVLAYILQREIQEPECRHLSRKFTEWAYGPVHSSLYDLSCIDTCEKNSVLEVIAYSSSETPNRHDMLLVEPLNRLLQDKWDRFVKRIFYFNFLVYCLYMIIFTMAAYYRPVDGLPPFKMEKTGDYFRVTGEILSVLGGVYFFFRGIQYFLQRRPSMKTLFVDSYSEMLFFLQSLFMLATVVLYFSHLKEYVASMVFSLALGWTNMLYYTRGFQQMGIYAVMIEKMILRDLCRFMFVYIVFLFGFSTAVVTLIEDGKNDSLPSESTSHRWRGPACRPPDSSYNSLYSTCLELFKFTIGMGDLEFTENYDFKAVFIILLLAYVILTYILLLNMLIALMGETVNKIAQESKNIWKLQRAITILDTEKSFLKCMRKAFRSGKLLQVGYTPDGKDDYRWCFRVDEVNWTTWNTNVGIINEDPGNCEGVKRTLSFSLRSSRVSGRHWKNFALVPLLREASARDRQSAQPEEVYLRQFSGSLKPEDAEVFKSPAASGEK
Assay: Desensitization of anandamide/low pH-induced TRPV1-mediated elevation of intracellular [Ca2+]
Format: cell-based
Conditions: 0.5 μM AEA, physiological pH (7.4); read-out: IC50, desensitization of anandamide effect
property.label: IC50 (pM)
Record the value in pM, omitting the unit from your answer.

Read the entry CCCCCCCCCCCCCCCC(=O)NCc1ccc(O)c(OC)c1 [Palvanil] and write its reported IC50.
900
